system.name: purine nucleoside phosphorylase (PNP) (Bos taurus, UniProt P55859)
Sequence (P55859 whole entry): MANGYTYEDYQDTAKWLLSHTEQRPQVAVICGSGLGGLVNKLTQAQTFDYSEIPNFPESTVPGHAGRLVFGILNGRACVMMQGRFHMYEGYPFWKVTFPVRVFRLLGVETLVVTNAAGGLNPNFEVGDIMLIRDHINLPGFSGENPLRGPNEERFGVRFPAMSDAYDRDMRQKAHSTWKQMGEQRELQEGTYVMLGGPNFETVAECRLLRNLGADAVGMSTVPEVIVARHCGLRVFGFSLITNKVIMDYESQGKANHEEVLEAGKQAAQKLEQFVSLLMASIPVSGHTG
procedure.text: Purine nucleoside phosphorylase (PNP) radiochemical enzyme assay, [14C]-hypoxanthine formation from [14C]-inosine
recorded.conditions: IC50 (PNP inhibition), 50 mM phosphate; calf spleen PNP
Exercise: state measured pIC50 for each of the molecules provided.
One number for each entry, as −log10 of the molar value.

>  <molecule>
Nc1nc(O)c2[nH]cc(C(CC(=O)O)c3ccccc3)c2n1 (centres unmarked) [Example 15]

>  <pIC50>
6.72

$$$$

Now for another entry.
Give purine nucleoside phosphorylase (PNP) (Bos taurus, UniProt P55859) pIC50 for the following molecule: N#CCC(c1cc(Cl)cc(Cl)c1Cl)c1c[nH]c2c(=O)[nH]c(N)nc12 (centres unmarked) [Example 8A]
5.00
